// compounds with Ki on Apoptosis regulator Bcl-2 (Homo sapiens, UniProt P10415), multi-source literature
parameter: Ki

>>> measured_value("COc1ccccc1CN(CCN(C)C)Cc1cccc(CN2OC(CO)C(C(C)O)C2C(=O)NC2CC3CC(C2C)C3(C)C)c1 (stereo not shown)")
"< 800 nM"
>>> measured_value("C[C@H](O)[C@@H]1[C@H](CO)ON(Cc2cccc(CN(CCN(C)C)Cc3ccccc3)c2)[C@@H]1C(=O)NCCc1cccc(-c2ccccc2)c1")
"800 to 6000 nM"
>>> measured_value("CCCCc1ccc(-c2cccc(CN(Cc3ccc(F)cc3)S(=O)(=O)c3cc(Cl)cc(Cl)c3O)c2)cc1")
"130 nM"
>>> measured_value("CC(O)C1C(CO)ON(Cc2cccc(CN(CCN(C)C)Cc3cccc(Cl)c3)c2)C1C(=O)NC1CC2CC(C1C)C2(C)C (stereo not shown)")
"< 800 nM"
>>> measured_value("COc1c(CN2O[C@@H](CO)[C@@H]([C@H](C)O)[C@H]2C(=O)N[C@H]2C[C@H]3C[C@@H]([C@@H]2C)C3(C)C)cccc1-c1cc(C(=O)N[C@H](Cc2ccccc2)CN2CCN(C)CC2)cc(N(C)C)c1")
"< 1 nM"
>>> measured_value("CC(O)C1C(CO)ON(Cc2cccc(CN(CCN3CCOCC3)Cc3ccccc3)c2)C1C(=O)NC1CC2CC(C1C)C2(C)C (stereo not shown)")
"< 800 nM"
>>> measured_value("O=S(=O)(c1cc(Cl)cc(Cl)c1)N(Cc1ccc(F)cc1)Cc1cccc(CN(Cc2ccc(F)cc2)S(=O)(=O)c2cc(Cl)cc(Cl)c2O)n1")
"42 nM"
>>> measured_value("COc1cccc(OC)c1CN(Cc1cccc(CN2OC(CO)C(C(C)O)C2C(=O)NC2CC3CC(C2C)C3(C)C)c1)C(CC(C)C)CN(C)C (stereo not shown)")
"< 800 nM"
>>> measured_value("CC(C)CN(Cc1ccc(CN(CC(C)C)S(=O)(=O)c2cc(Cl)cc(Cl)c2O)cc1)S(=O)(=O)c1cc(Cl)cc(Cl)c1O")
"110 nM"
>>> measured_value("CC(C)C[C@@H](CN(C)C)N(Cc1cccc(CN2O[C@@H](CO)C([C@H](C)O)[C@H]2C(=O)N[C@H]2C[C@H]3C[C@@H]([C@@H]2C)C3(C)C)c1)Cc1c(Cl)cccc1Cl (stereo partly shown)")
"< 800 nM"
>>> measured_value("CC(O)C1C(CO)ON(Cc2cccc(CN(CCN3CCCC3)Cc3ccccc3)c2)C1C(=O)NC1CC2CC(C1C)C2(C)C (stereo not shown)")
"< 800 nM"
>>> measured_value("C[C@@H]1[C@@H](NC(=O)[C@@H]2[C@H]([C@H](C)O)[C@H](CO)ON2Cc2cccc(-c3cccc(C(N)=O)c3)c2)C[C@H]2C[C@@H]1C2(C)C")
"< 800 nM"
>>> measured_value("C[C@@H]1[C@@H](NC(=O)[C@@H]2C([C@H](C)O)[C@H](CO)ON2Cc2cccc(CN(CCN(C)C)Cc3ccccc3OC(F)(F)F)c2)C[C@H]2C[C@@H]1C2(C)C (stereo partly shown)")
"< 800 nM"
>>> measured_value("CC(O)C1C(CO)ON(Cc2cccc(CN(CCN(C)C)Cc3ccccc3F)c2)C1C(=O)NC1CC2CC(C1C)C2(C)C (stereo not shown)")
"< 800 nM"
>>> measured_value("COc1c(CN2O[C@@H](CO)[C@@H]([C@H](C)O)[C@H]2C(=O)N[C@H]2C[C@H]3C[C@@H]([C@@H]2C)C3(C)C)cccc1-c1cc(C(=O)N[C@@H](CN(C)C)CS(=O)(=O)C(C)(C)C)cc(N(C)C)c1")
"1 to 5 nM"
>>> measured_value("N#Cc1ccc(S(=O)(=O)NCc2cccc(CN(Cc3ccc(-c4ccccc4)cc3)S(=O)(=O)c3cc(Cl)cc(Cl)c3O)c2)cc1")
"60 nM"
>>> measured_value("C[C@@H]1[C@@H](NC(=O)[C@@H]2[C@H]([C@H](C)O)[C@H](CO)ON2Cc2cccc(-c3ccc4c(c3)C(=O)N(C)C4=O)c2)C[C@H]2C[C@@H]1C2(C)C")
"< 800 nM"
>>> measured_value("CCCCCCCN(CCN(C)C)Cc1cccc(CN2O[C@@H](CO)C([C@H](C)O)[C@H]2C(=O)N[C@H]2C[C@H]3C[C@@H]([C@@H]2C)C3(C)C)c1 (stereo partly shown)")
"< 800 nM"
>>> measured_value("COc1c(CN2O[C@@H](CO)[C@@H]([C@H](C)O)[C@H]2C(=O)N[C@H]2C[C@H]3C[C@@H]([C@@H]2C)C3(C)C)cccc1-c1cc(C(=O)N[C@@H](Cc2ccccc2)CN(C)C)cc(N(C)CC(=O)N(C)C)c1")
"< 1 nM"
>>> measured_value("CO[C@@H](c1ccccc1-c1ccc(Cl)cc1)C1CCN(c2ccc(C(=O)NS(=O)(=O)c3ccc(N[C@@H](CSc4ccccc4)C[C@H]4CCCN4)c(S(=O)(=O)C(F)(F)F)c3)cc2)CC1")
"0.1 nM"
>>> measured_value("CNC(=O)c1cc(-c2cccc(CN3O[C@@H](CNCc4ccc(C(=O)O)cc4)[C@@H]([C@H](C)O)[C@H]3C(=O)N[C@H]3C[C@H]4C[C@@H]([C@@H]3C)C4(C)C)c2OC)cc(N(C)C)c1")
"> 9 nM"
>>> measured_value("C[C@@H]1[C@@H](NC(=O)[C@@H]2C([C@H](C)O)[C@H](CO)ON2Cc2cccc(CN(CCN(C)C)C(c3ccccc3)c3ccccc3)c2)C[C@H]2C[C@@H]1C2(C)C (stereo partly shown)")
"< 800 nM"
